// provenance: ChEMBL document CHEMBL1130123

test: Total body clearance at an intravenous dose of 5.5 mg/kg in rat; assay type: ADME, organism-based; design: dose 5.5 mg/kg, route intravenous; settings: in vivo
value-kind: clearance (mL/min/kg)
Numbers only, in mL/min/kg.

Exam item: State, in one line, measured clearance of COc1ccc(N(C(=O)CN2C(=O)C(Cc3n[nH]c4ccccc34)(OC)C(=O)N(c3ccccc3)c3ccccc32)C(C)C)cc1 (stereo unspecified)
Marked response: 35

====

test: Maximum concentration at an intraduodenal dose of 5.2 mg/kg in rat; assay type: ADME, organism-based; parameters: dose 5.2 mg/kg, route intraduodenal; conditions: in vivo
value-kind: Cmax

Exam item: Retrieve Cmax measured for COc1ccc(N(C(=O)CN2C(=O)C(C)(Cc3n[nH]c4ccccc34)C(=O)N(c3ccccc3)c3ccccc32)C(C)C)cc1 (stereo unspecified) and print it.
Marked response: 30 ng/mL

====

assay: Oral bioavailability in Long-Evans rats at an peroral dose of 6.5 mg/kg; assay type: ADME, organism-based; settings: rat, in vivo
value-kind: bioavailability

Exam item: Output bioavailability of COc1ccc(N(C(=O)CN2C(=O)C(C)(Cc3nn(C)c4ccccc34)C(=O)N(c3ccccc3)c3ccccc32)C(C)C)cc1 (stereo unspecified)
Marked response: 4%

====

Please go through the items and note down their Max.
tested on: Mus musculus; experiment: Maximal response at 1 nmol/kg intraperitoneal dose; type: functional
Numbers only, in %.

Please review the following examples before continuing.
compound="COc1ccc(N(C(=O)CN2C(=O)C(Cc3n[nH]c4ccccc34)(OC)C(=O)N(c3ccccc3)c3ccccc32)C(C)C)cc1 (centres undefined)" measured_target="Mus musculus" scale_unit=% experimental_result=89
compound="COc1ccc(N(C(=O)CN2C(=O)C(Cc3n[nH]c4ccccc34)C(=O)N(c3ccccc3)c3ccccc32)C(C)C)cc1 (centres undefined)" measured_target="Mus musculus" scale_unit=% experimental_result=97
compound="COc1ccc(N(C(=O)CN2C(=O)C(C)(Cc3c[nH]c4ccccc34)C(=O)N(c3ccccc3)c3ccccc32)C(C)C)cc1 (centres undefined)" measured_target="Mus musculus" scale_unit=% experimental_result=91

Exam item: Query Max for COc1ccc(N(C(=O)CN2C(=O)C(Cc3nn(C)c4ccccc34)C(=O)N(c3ccccc3)c3ccccc32)C(C)C)cc1 (centres undefined)
Marked response: 83

====

tested on: Mus musculus; test: Maximal response at 1 nmol/kg intraperitoneal dose; assay type: functional
value-kind: Max (%)
Numbers only, in %.

Recorded results for 2 compounds are shown here.
compound="COc1ccc(N(C(=O)CN2C(=O)C(Cc3c[nH]c4ccccc34)(OC)C(=O)N(c3ccccc3)c3ccccc32)C(C)C)cc1 (stereo not drawn)" measured_target="Mus musculus" experimental_result=84
compound="CSCC[C@H](NC(=O)[C@H](Cc1ccc(OS(=O)(=O)O)cc1)NC(=O)[C@@H](N)CC(=O)O)C(=O)NCC(=O)N[C@@H](Cc1c[nH]c2ccccc12)C(=O)N[C@@H](CCSC)C(=O)N[C@@H](CC(=O)O)C(=O)N[C@@H](Cc1ccccc1)C(N)=O [SINCALIDE]" measured_target="Mus musculus" experimental_result=95

Next compound, Max to be filled in.
Exam item: Provide Max, recorded with Mus musculus, of COc1ccc(N(C(=O)CN2C(=O)C(Cc3c[nH]c4ccccc34)C(=O)N(c3ccccc3)c3ccccc32)C(C)C)cc1 (stereo not drawn)
Marked response: 90
